Molecular target: E. coli GlmS mutant GlmS*54, SEQ ID NO:6 (Ala39Thr, Arg250Cys, Gly472Ser) (strain 2123-54) (Escherichia coli, UniProt P17169, A39T/G472S/R250C)
Sequence (P17169 2-609 A39T/R250C/G472S): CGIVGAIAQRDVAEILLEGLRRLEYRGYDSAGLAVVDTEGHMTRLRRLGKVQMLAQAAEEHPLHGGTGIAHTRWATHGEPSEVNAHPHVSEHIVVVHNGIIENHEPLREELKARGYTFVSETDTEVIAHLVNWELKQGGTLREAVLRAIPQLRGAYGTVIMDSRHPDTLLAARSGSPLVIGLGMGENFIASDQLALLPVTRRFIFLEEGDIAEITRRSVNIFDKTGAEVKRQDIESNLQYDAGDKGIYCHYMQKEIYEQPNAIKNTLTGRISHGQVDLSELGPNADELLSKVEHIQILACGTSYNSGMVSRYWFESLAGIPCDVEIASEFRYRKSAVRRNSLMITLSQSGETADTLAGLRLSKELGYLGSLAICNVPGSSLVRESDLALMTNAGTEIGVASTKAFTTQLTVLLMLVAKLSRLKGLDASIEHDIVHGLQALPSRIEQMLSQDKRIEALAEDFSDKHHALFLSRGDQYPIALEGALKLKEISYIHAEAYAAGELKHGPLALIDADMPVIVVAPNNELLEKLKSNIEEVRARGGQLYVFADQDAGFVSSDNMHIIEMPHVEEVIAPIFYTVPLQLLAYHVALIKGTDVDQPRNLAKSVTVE
Test: GlmS inhibition and Michaelis-Menten kinetics, crude extract of strain 2123-54
recorded_endpoint: Ki (mM)
Respond with the bare value in mM.

Q: Check the records and state Ki for N[C@H]1C(O)O[C@H](COP(=O)(O)O)[C@@H](O)[C@@H]1O (stereo partly shown) [glucosamine-6-P, glucosamine-6-phosphate]
Ans: 4

----------
Biological target: E. coli glucosamine synthase GlmS*54 (Escherichia coli, UniProt P17169, A39T/G472S/R250C)
Construct: made in house; host or cells: E. coli 7107-18 (printed '7017-18'; T7-glmS*54 integrated at galK) and strains derived from it; crude extract
Sequence (P17169 2-609 A39T/R250C/G472S): as above
Assay: Effects of phosphorylated sugars on glucosamine synthase
Format: biochemical
Consider the following compounds and their measured activity at 10000 µM readings.
Respond with the bare value in %.

compound	activity at 10000 µM [%]
N[C@H]1C(O)O[C@H](COP(=O)(O)O)[C@@H](O)[C@@H]1O (stereo partly shown) [glucosamine-6-P, glucosamine-6-phosphate]	70
CC(=O)N[C@H]1C(OP(=O)(O)O)O[C@H](CO)[C@@H](O)[C@@H]1O (stereo partly shown) [N-acetylglucosamine-1-P, N-acetylglucosamine-1-phosphate]	100
N[C@H]1C(OP(=O)(O)O)O[C@H](CO)[C@@H](O)[C@@H]1O (stereo partly shown) [glucosamine-1-P, glucosamine-1-phosphate]	79

Please examine the following record next.
Q: Check the records and state activity at 10000 µM for CC(=O)N[C@H]1C(O)O[C@H](COP(=O)(O)O)[C@@H](O)[C@@H]1O (stereo partly shown) [N-acetylglucosamine-6-P, N-acetylglucosamine-6-phosphate]
Ans: 100

----------
Target: E. coli GlmS (glucosamine-6-phosphate synthase), wild type, SEQ ID NO:2 (strain 2123-12) (Escherichia coli, UniProt P17169)
Construct: made in house; host or cells: E. coli strain 2123-12 (T7-glmS integrated in the chromosome), crude cell extract
Sequence (P17169 2-609 limits assumed): as the sequence (P17169 2-609 A39T/R250C/G472S) above, with T38A, C249R, S471G counted along it
Experiment: GlmS (glucosamine synthase) inhibition and Michaelis-Menten kinetics, crude extract of strain 2123-12
Assay type: biochemical
Experimental: Different glucosamine synthetase enzymes, including native B. subtillus GlmS, native E. coli GlmS and mutant E. coli GlmS, were studied in vitro. Cells of various E. coli strains were grown in the M9A medium, harvested, and frozen. […] The Mutants 2123-54 and the B. subtilis enzyme have higher Ki values (Table 6). Measured Ki constants for several of these mutants are 4 to 8 times the value for the native enzyme in strain 2123-12. […]
recorded_endpoint: pKi
// pKi here means minus log10 of the molar concentration (mol/L)

Q: Check the records and state pKi for N[C@H]1C(O)O[C@H](COP(=O)(O)O)[C@@H](O)[C@@H]1O (stereo partly shown) [glucosamine-6-P, glucosamine-6-phosphate]
Ans: 3.25

----------
Target: Bacillus subtilis GlmS, wild type, SEQ ID NO:16 (Bacillus subtilis, UniProt P0CI73)
Construct: made in house; host or cells: E. coli 7107-24 (7101-17(DE3) with pET24d(+)/B. subtilis glmS from ATCC23856), crude cell extract
Sequence (P0CI73 2-600): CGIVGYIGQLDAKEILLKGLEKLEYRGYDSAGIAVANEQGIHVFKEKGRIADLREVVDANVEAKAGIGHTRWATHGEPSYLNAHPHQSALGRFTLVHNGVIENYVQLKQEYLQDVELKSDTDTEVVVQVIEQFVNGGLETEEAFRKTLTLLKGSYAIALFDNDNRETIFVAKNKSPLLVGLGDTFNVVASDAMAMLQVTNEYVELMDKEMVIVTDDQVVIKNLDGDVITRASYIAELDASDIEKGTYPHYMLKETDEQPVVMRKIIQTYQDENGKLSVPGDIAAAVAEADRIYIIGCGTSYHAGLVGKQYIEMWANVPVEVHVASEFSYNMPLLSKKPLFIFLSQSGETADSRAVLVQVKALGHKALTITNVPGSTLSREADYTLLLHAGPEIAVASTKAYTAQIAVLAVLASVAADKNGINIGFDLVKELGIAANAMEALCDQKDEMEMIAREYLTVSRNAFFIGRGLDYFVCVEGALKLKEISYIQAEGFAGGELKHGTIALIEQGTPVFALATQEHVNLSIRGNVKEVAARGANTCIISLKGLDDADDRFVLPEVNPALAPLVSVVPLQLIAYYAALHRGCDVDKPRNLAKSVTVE
Assay: biochemical
Conditions: read-out: Ki (GlcN-6-P)
recorded_endpoint: pKi
// pKi here means minus log10 of the molar concentration (mol/L)

Q: Check the records and state pKi for N[C@H]1C(O)O[C@H](COP(=O)(O)O)[C@@H](O)[C@@H]1O (stereo partly shown) [glucosamine-6-P, glucosamine-6-phosphate]
Ans: 2.90

----------
Biological target: E. coli GlmS mutant GlmS*124, SEQ ID NO:8 (Leu469Pro) (strain 2123-124) (Escherichia coli, UniProt P17169, L469P)
Sequence (P17169 2-609 L469P): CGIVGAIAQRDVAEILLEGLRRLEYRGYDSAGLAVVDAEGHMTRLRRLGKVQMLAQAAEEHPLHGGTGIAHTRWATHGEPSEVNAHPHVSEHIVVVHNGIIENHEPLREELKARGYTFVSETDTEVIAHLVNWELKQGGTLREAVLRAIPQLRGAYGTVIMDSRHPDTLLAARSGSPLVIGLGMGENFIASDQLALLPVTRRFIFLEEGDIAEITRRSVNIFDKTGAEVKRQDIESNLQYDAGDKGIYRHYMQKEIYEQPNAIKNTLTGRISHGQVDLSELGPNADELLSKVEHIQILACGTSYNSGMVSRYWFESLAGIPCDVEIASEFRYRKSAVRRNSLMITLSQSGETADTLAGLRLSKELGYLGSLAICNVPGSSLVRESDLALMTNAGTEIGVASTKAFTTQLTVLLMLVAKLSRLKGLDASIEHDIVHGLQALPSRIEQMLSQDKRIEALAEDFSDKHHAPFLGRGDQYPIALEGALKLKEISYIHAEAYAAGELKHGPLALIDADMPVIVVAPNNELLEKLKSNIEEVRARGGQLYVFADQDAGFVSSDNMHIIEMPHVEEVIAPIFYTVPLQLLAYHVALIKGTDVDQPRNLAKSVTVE
Experiment: GlmS inhibition and Michaelis-Menten kinetics
recorded_endpoint: pKi
// pKi here means minus log10 of the molar concentration (mol/L)

Q: Check the records and state pKi for N[C@H]1C(O)O[C@H](COP(=O)(O)O)[C@@H](O)[C@@H]1O (stereo partly shown) [glucosamine-6-P, glucosamine-6-phosphate]
Ans: 2.46

----------
Target: E. coli GlmS mutant GlmS*69 (Escherichia coli, UniProt P17169)
Sequence (P17169 whole entry, change not shown): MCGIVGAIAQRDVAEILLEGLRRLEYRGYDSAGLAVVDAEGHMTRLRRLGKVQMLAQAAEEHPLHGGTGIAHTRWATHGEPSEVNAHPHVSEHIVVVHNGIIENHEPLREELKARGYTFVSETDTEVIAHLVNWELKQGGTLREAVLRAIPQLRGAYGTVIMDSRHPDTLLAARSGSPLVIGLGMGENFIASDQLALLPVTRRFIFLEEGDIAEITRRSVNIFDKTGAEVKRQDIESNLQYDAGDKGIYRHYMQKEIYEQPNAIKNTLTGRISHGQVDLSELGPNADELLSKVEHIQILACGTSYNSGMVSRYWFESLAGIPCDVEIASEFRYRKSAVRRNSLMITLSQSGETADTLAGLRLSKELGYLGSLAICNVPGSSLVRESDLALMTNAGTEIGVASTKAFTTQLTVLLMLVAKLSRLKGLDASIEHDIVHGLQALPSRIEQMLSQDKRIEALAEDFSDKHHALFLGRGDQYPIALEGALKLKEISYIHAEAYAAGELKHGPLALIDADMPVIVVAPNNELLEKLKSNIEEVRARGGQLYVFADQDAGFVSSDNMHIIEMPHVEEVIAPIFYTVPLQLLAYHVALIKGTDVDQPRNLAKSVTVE
Test: GlmS inhibition and Michaelis-Menten kinetics
Details: read-out: Ki (GlcN-6-P)
recorded_endpoint: pKi
// pKi here means minus log10 of the molar concentration (mol/L)

Q: Check the records and state pKi for N[C@H]1C(O)O[C@H](COP(=O)(O)O)[C@@H](O)[C@@H]1O (stereo partly shown) [glucosamine-6-P, glucosamine-6-phosphate]
Ans: 2.82
